assay: Quantitative High-Throughput drug screen in 47 multiple myeloma cell lines against the NCATS MIPE library collection: MMM1_PLB cell viability assay (AID 1918976); settings: MMM1 myeloma cells viability, CellTiter-Glo, 48 h; series mostly up to 45.8 µM; further: nearly all actives have a fitted effect of over 35% in size
Results filed as inconclusive are left out. Activity calls are given as the source filed them. The call rests on the fitted dose curve; in most records, active means well fitted cell-killing curve with a large enough effect; inconclusive means small, poorly fitted or top-dose-only effect, or effect the other way; inactive means no such curve, though single readings can be large or run the other way.
Hi there, use one of these labels in your reply, thanks! active, inactive

Observe how each entry below is paired with its result.
{"molecule": "O=C(C=Cc1ccc(CN(CCO)CCc2c[nH]c3ccccc23)cc1)NO", "assigned_class": "active"}
{"molecule": "COc1cc2c(cc1OC)[C@@H]1C(=O)c3ccc4c(c3O[C@@H]1CO2)C=CC(C)(C)O4", "assigned_class": "active"}
{"molecule": "COc1cc(C)c(Sc2cnc(NC(=O)c3ccc(CNC(C)C(C)(C)C)cc3)s2)cc1C(=O)N1CCN(C(C)=O)CC1 (stereo unspecified)", "assigned_class": "active"}
{"molecule": "C[C@H](NCc1ccc(OCc2cccc(F)c2)cc1)C(N)=O", "assigned_class": "active"}
{"molecule": "O=C(Nc1cccc(Nc2ncc(Br)c(NCCc3cnc[nH]3)n2)c1)N1CCCC1", "assigned_class": "active"}
{"molecule": "CO[C@@H]1[C@@H](O)[C@H](O)[C@@H](n2c3c(Cl)cccc3c3c4c(c5c6cccc(Cl)c6[nH]c5c32)C(=O)NC4=O)O[C@@H]1CO", "assigned_class": "active"}
{"molecule": "COc1ccc(CCC(=O)c2c(O)cc(O[C@@H]3O[C@H](CO)[C@@H](O)[C@H](O)[C@@H]3O[C@@H]3O[C@@H](C)[C@H](O)[C@@H](O)[C@@H]3O)cc2O)cc1O", "assigned_class": "inactive"}
{"molecule": "Cc1nc(NC(=O)N2CCC[C@@H]2C(N)=O)sc1-c1ccnc(C(C)(C)C(F)(F)F)c1", "assigned_class": "active"}
{"molecule": "O=C(O)c1ccc(Nc2ncc3c(n2)-c2ccc(Cl)cc2C(c2c(F)cccc2F)=NC3)cc1", "assigned_class": "inactive"}
{"molecule": "COc1ccc(S(=O)(=O)Nc2cccnc2Nc2ccc(O)cc2)cc1", "assigned_class": "active"}

Shifting focus to the molecule that follows.
*Q* Which outcome was entered for the molecule CC(Oc1ccc(O)cc1)(P(=O)(O)O)P(=O)(O)O in this test?
*A* inactive
